# Protocol Notes: qHTS assay for identifying genotoxic compounds that show differential cytotoxicity against isogenic chicken DT40 cell lines with known DNA damage response pathways - Rad54/Ku70 mutant cell line (AID 743015); also: nearly all actives have a fitted effect of over 60% in size
# Experimental Setup: DT40 Rad54/Ku70 mutant viability, CellTiter-Glo, 40 h; series mostly up to 66.8 µM
Records with an inconclusive call do not appear. Calls of active or inactive are those of the source. Calls follow the shape of the dose curve; as a rule, active = well fitted cell-killing curve with a large enough effect in the repeat runs; inconclusive = weak or mixed curves; inactive = no such curve, though single readings can be large or run the other way.
Result category, one only: active, inactive

# example entries with known answers
Molecule	Cat
CN1CCN(CCC(=O)N2c3ccccc3Sc3ccc(C(F)(F)F)cc32)CC1	active
CCCCCCCCCOC(=O)c1ccc(O)cc1	active
C=CC(=O)OCCn1c(=O)n(CCOC(=O)C=C)c(=O)n(CCOC(=O)C=C)c1=O	active

Request: Please indicate how the test categorized CCCCN1CCCC[C@H]1C(=O)Nc1c(C)cccc1C .
Result: inactive

###

# Protocol Notes: qHTS assay to identify small molecule antagonists of the thyroid receptor (TR) signaling pathway (AID 743065); also: nearly all actives have a fitted effect of over 55% in size
# Experimental Setup: GH3.TRE-Luc, T3-stimulated luciferase inhibition, 23.5 h; series mostly up to 70.3 µM
Inconclusive results are not listed. Calls of active or inactive are those of the source. Calls come from the whole dose curve; as a rule, active = well fitted inhibition curve with a large enough effect in the repeat runs; inconclusive = weak or mixed curves; inactive = no such curve, though single readings can be large or run the other way.
Result category, one only: Y = active, N = inactive

# example entries with known answers
                                smiles_repr  cat
0                  C/C=C(\C)C(=O)OCc1ccccc1    N
1                        OCc1c[nH]c2ccccc12    Y
2  CN1CCN(CCC(=O)N2c3ccccc3Sc3ccc(C(F)(F)F)cc32)CC1    Y
3       CCCCCCC[N+](CC)(CC)CCCCc1ccc(Cl)cc1    Y
4  CC(C)c1ccc2c(c1)CC[C@H]1[C@](C)(CN)CCC[C@]21C    Y

Request: Please indicate how the test categorized CCCCCCCCn1sc(Cl)c(Cl)c1=O .
Result: Y

Request: Please indicate how the test categorized Nc1ccc2c3c(cccc13)-c1ccccc1-2 .
Result: Y

Request: Please indicate how the test categorized OCCN1CCN(CC/C=C2/c3ccccc3Sc3ccc(C(F)(F)F)cc32)CC1 .
Result: Y

Request: Please indicate how the test categorized Oc1cccc2cc3cccc(O)c3c(O)c12 .
Result: N

###

# Target Desc: Thyrotropin receptor (Homo sapiens)
# Protocol Notes: qHTS assay to identify small molecule antagonists of the thyroid stimulating hormone receptor (TSHR) signaling pathway (AID 1259385); also: nearly all actives have a fitted effect of over 20% in size
# Experimental Setup: TSHR-HEK293 cAMP HTRF, TSH-stimulated antagonist mode; series mostly up to 92.4 µM
Results filed as inconclusive are left out. Activity calls are given as the source filed them. Calls come from the whole dose curve.
Measured Metric: outcome

>>> print(df.to_string())
                                smiles_repr  value_reported
0  CCN(CCC#N)c1ccc(N=Nc2c(Cl)cc([N+](=O)[O-])cc2Cl)cc1        inactive
1              O=C(N/N=C/c1ccccc1O)c1ccncc1        inactive
2      Oc1ccc2cc(SSc3ccc4cc(O)ccc4c3)ccc2c1        inactive

###

# Protocol Notes: qHTS assay to identify small molecule antagonists of the constitutive androstane receptor (CAR) signaling pathway - cell viability counter screen (AID 1224837); also: nearly all actives have a fitted effect of over 45% in size
# Experimental Setup: HepG2-CYP2B6-hCAR viability, CellTiter-Fluor, 23 h, co-treated with 50 nM CITCO; series mostly up to 92.4 µM
Results filed as inconclusive are left out. Active and inactive are the calls of the source. Calls come from the whole dose curve; as a rule, active = well fitted cell-killing curve with a large enough effect in the repeat runs; inconclusive = weak or mixed curves, or effect the other way; inactive = flat fitted curve, though single readings scatter.
Result category, one only: active, inactive

                        compound       cat
0  CCOc1ccc2nc3cc(N)ccc3c(N)c2c1  inactive

Request: Please indicate how the test categorized Cc1[nH]nc2c1N=C(c1ccccc1Cl)c1cc([N+](=O)[O-])ccc1N2 .
Result: active

Request: Please indicate how the test categorized CCCCCCCC[P+](CCCCCCCC)(CCCCCCCC)CCCCCCCC .
Result: active

Request: Please indicate how the test categorized CCN(C(=O)N(CC)c1ccccc1)c1ccccc1 .
Result: inactive

Request: Please indicate how the test categorized O=C1C=CC(=O)N1 .
Result: active

###

# Protocol Notes: qHTS assay to identify small molecule antagonists of the estrogen receptor alpha (ER-alpha) signaling pathway using the BG1 cell line (AID 743080);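 also: BG1 cells stimulated with 17beta-estradiol alongside compound; nearly all actives have a fitted effect of over 25% in size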
# Experimental Setup: BG1Luc4E2 ERE-luciferase antagonist mode, luminescence; series mostly up to 70.3 µM
Inconclusive results are not listed. Active and inactive are the calls of the source. Calls follow the shape of the full dose curve.
Result category, one only: label 1 for active, label 0 for inactive

# example entries with known answers
                                   compound      cat
0                            CCCC/C=C/CCCCO  label 0
1                     O=c1[nH]cnc2nc[nH]c12  label 0
2          CC1=NC(C)OC1C (stereo not given)  label 0
3  O=C(O)c1cc(O)c2c(c1)C(=O)c1cccc(O)c1C2=O  label 0

Read the next record carefully.
Request: Please indicate how the test categorized CCCC(=O)OC[C@@H](OC(=O)CCC)[C@@H](OC(=O)CCC)[C@H](Cn1c2nc(=O)[nH]c(=O)c-2nc2cc(C)c(C)cc21)OC(=O)CCC .
Result: label 1

###

# Protocol Notes: qHTS assay to identify small molecule agonists of the RXR signaling pathway - cell viability counter screen (AID 1159529); also: nearly all actives have a fitted effect of over 50% in size
# Experimental Setup: RXR-alpha-bla HEK293T viability, CellTiter-Glo, 16 h; series mostly up to 76.8 µM
Inconclusive results are not listed. Calls of active or inactive are those of the source. The call rests on the fitted dose curve; in most records, active means well fitted cell-killing curve with a large enough effect in the repeat runs; inconclusive means weak or mixed curves, or effect the other way; inactive means no such curve, though single readings can be large or run the other way.
Result category, one only: TRUE for active, FALSE for inactive

                                   compound    cat
0                           CCCCCOC(=O)CCCC  FALSE
1  OC1(c2ccc(Cl)c(C(F)(F)F)c2)CCN(CCCC(c2ccc(F)cc2)c2ccc(F)cc2)CC1   TRUE

Request: Please indicate how the test categorized CCCC(c1cc(C(C)(C)C)c(O)cc1C)c1cc(C(C)(C)C)c(O)cc1C .
Result: TRUE

Request: Please indicate how the test categorized Nc1ccc(N)c2ccccc12 .
Result: TRUE

###

# Protocol Notes: qHTS assay to identify small molecule antagonists of the farnesoid-X-receptor (FXR) signaling pathway - cell viability counter screen (AID 743221); also: nearly all actives have a fitted effect of over 50% in size
# Experimental Setup: FXR-bla HEK293T viability, CellTiter-Glo luminescence, 16 h; series mostly up to 62.6 µM
Records with an inconclusive call do not appear. The source made the active and inactive calls. Calls follow the shape of the dose curve; as a rule, active = well fitted cell-killing curve with a large enough effect in the repeat runs (not every such curve was filed as active); inconclusive = weak or mixed curves, or effect the other way; inactive = no such curve, though single readings can be large or run the other way.
Result category, one only: active, inactive

# example entries with known answers
>>> df
                                   compound       cat
0                    Oc1ccc(N=Nc2ccccc2)cc1  inactive
1  CCC(C)(C)C1CCCCC1OC(C)=O (centres undefined)  inactive
2                                   C1CCCC1  inactive
3  CN1CCN(CCC(=O)N2c3ccccc3Sc3ccc(C(F)(F)F)cc32)CC1    active
4                        [Cl][Au]([Cl])[Cl]    active
5                 CC(C)CCCCCCCCCCCCCCC(=O)O  inactive

Request: Please indicate how the test categorized CCCCN1C(=O)[C@@H]([C@H](O)C2CCCCC2)NC(=O)C12CCN(Cc1ccc(Oc3ccc(C(=O)O)cc3)cc1)CC2 .
Result: inactive

Request: Please indicate how the test categorized CN(C)c1ccc(C2(c3ccc(N(C)C)cc3)OC(=O)c3cc(N(C)C)ccc32)cc1 .
Result: inactive

###

# Protocol Notes: A CellTox Green Cytotoxicity Assay to monitor cytotoxicity in HEK293 cells - 40 hour (AID 1224871); also: nearly all actives have a fitted effect of over 45% in size
# Experimental Setup: CellTox Green fluorescence; series mostly up to 76.8 µM
Inconclusive results are not listed. Active and inactive are the calls of the source. The call rests on the fitted dose curve; in most records, active means well fitted activation curve with a large enough effect in the repeat runs; inconclusive means weak or mixed curves; inactive means flat fitted curve, though single readings scatter.
Result category, one only: y for active, n for inactive

# example entries with known answers
In [3]: df
Out[3]:
                       molecule  cat
0  O=C(N/N=C/c1ccccc1O)c1ccncc1    n
1       Oc1c(Cl)cc(Cl)c2cccnc12    y

Request: Please indicate how the test categorized CCCCCCCC(=O)[O-].CCCCCCCC(=O)[O-].[Zn+2] .
Result: n

Request: Please indicate how the test categorized NNc1nc(-c2ccccc2)cs1 .
Result: n

Request: Please indicate how the test categorized CCN(CCC#N)c1ccc(N=Nc2c(Cl)cc([N+](=O)[O-])cc2Cl)cc1 .
Result: n

Request: Please indicate how the test categorized NC(=NCCCCCCN=C(N)/N=C(\N)Nc1ccc(Cl)cc1)/N=C(\N)Nc1ccc(Cl)cc1 .
Result: y

Request: Please indicate how the test categorized CC(C)=CCOc1ccc(/C=C/C(=O)c2ccc(OCC=C(C)C)cc2OCC(=O)O)cc1 .
Result: n

From: PubChem BioAssay (Tox21)
